test system: webbing clothes moth (Tineola bisselliella); assay: Biological test 14: persistence of treated filter paper in cardboard box, webbing clothes moth larvae; assay type: in vivo; parameters: key: -: no damage; +: slight damage; ++: heavy damage; +++: severe damage; conditions: 36 mg on filter paper, After 2 weeks
quantity_kind: degree of damage

CC1(C)C(/C=C(\Cl)C(F)(F)F)C1C(=O)OCc1ccc(C(F)F)o1 (stereo not drawn) [B, reference compound] :: +++
CC1(C)C(/C=C(\Cl)C(F)(F)F)C1C(=O)OCc1coc(Cc2ccccc2)c1 (stereo not drawn) [A, reference compound] :: +++
CCc1ccc(COC(=O)[C@@H]2[C@H](/C=C(\Cl)C(F)(F)F)C2(C)C)o1 (racemic) :: -
